Values from the RNAGym collection of RNA variant scans (doi:10.1021/acssynbio.7b00057)

B1: Pistol ribozyme (parent)
chain: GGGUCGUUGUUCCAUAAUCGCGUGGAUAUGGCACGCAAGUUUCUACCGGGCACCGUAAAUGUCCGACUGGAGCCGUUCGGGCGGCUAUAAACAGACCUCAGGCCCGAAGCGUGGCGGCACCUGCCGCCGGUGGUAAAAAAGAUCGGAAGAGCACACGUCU

variants of: B1; assay: aptazyme ON/OFF ratio, guanine; higher = stronger switching; co-transcriptional cleavage with and without guanine
Consider the following variants and their measured aptazyme ON/OFF ratio readings.

{"mut": "U7G U8G G9A U10G U11G C12U C13U", "aptazyme ON/OFF ratio": 1.11}
{"mut": "U8C U11A C12A C13G", "aptazyme ON/OFF ratio": 1.11}
{"mut": "U7G U10A U11G C12G C13G", "aptazyme ON/OFF ratio": 1.26}
{"mut": "U7C U8A U10A U11C C13G", "aptazyme ON/OFF ratio": 1.04}
{"mut": "U7G G9C U10G U11G C13U", "aptazyme ON/OFF ratio": 1.36}
{"mut": "U8G G9A U10C U11G C12U C13G", "aptazyme ON/OFF ratio": 1.18}
{"mut": "U7C U8G G9U U10A U11A C12A C13A", "aptazyme ON/OFF ratio": 1.16}
{"mut": "U7G U8G G9A U11G C12U C13U", "aptazyme ON/OFF ratio": 1.4}
{"mut": "U7C U8A U10A C13G", "aptazyme ON/OFF ratio": 1.08}
{"mut": "U7C U8A G9U U10G C12A", "aptazyme ON/OFF ratio": 1.12}
{"mut": "U7G U8C G9U U10G U11G C12U C13G", "aptazyme ON/OFF ratio": 1.08}
{"mut": "G9A U10C U11C C12G C13U", "aptazyme ON/OFF ratio": 1.14}
{"mut": "U7C U8A G9A U10A", "aptazyme ON/OFF ratio": 1.69}
{"mut": "U8A U10G U11G C12A C13U", "aptazyme ON/OFF ratio": 1.44}
{"mut": "U7G U8C U10A U11A C12G C13A", "aptazyme ON/OFF ratio": 1.1}
{"mut": "U7C U8C G9A U11G C13A", "aptazyme ON/OFF ratio": 1.3}
{"mut": "U7G G9C U10G U11A C12U C13A", "aptazyme ON/OFF ratio": 1.17}
{"mut": "U7C U8C U10A C12A", "aptazyme ON/OFF ratio": 1.06}
{"mut": "U7A U8G U11A", "aptazyme ON/OFF ratio": 1.49}
{"mut": "U7A U8G U10C U11A", "aptazyme ON/OFF ratio": 1.95}
{"mut": "U8G G9A U10G U11C C12U C13U", "aptazyme ON/OFF ratio": 1.06}
{"mut": "U7C U8G G9C U10C U11G C12A C13U", "aptazyme ON/OFF ratio": 1.05}
{"mut": "U7C U8G G9U U11G C12G C13U", "aptazyme ON/OFF ratio": 1.11}
{"mut": "U7G U8G G9U U11C C12G C13G", "aptazyme ON/OFF ratio": 1.17}
{"mut": "U7C U8G G9C U10G U11A C13U", "aptazyme ON/OFF ratio": 1.16}
{"mut": "U7A U8C G9U U10G C12U C13U", "aptazyme ON/OFF ratio": 1.14}
{"mut": "U7G U8A U10A U11A C13U", "aptazyme ON/OFF ratio": 1.21}
{"mut": "U7G U8A G9C U10C U11G C12G", "aptazyme ON/OFF ratio": 1.03}
{"mut": "U7C U8A U10C U11G C12A C13G", "aptazyme ON/OFF ratio": 1.21}
{"mut": "U8A U11C C13U", "aptazyme ON/OFF ratio": 1.09}
{"mut": "U7A G9U U10G U11C C12A C13A", "aptazyme ON/OFF ratio": 1.14}
{"mut": "U11C C12A C13A", "aptazyme ON/OFF ratio": 1.53}
{"mut": "U7C G9U U10C U11A", "aptazyme ON/OFF ratio": 1.11}
{"mut": "U8A G9U U10G C13G", "aptazyme ON/OFF ratio": 1.13}
{"mut": "U7C U8C U11A C12U C13A", "aptazyme ON/OFF ratio": 1.16}
{"mut": "U7C U10A U11G C12G C13U", "aptazyme ON/OFF ratio": 1.12}
{"mut": "U7A U8G U10G C12A C13U", "aptazyme ON/OFF ratio": 1.15}
{"mut": "U7A U8G G9C U10A C12U C13U", "aptazyme ON/OFF ratio": 1.11}
{"mut": "U7C U10G U11A C12U C13G", "aptazyme ON/OFF ratio": 1.1}
{"mut": "U7G U10G U11A C12G C13G", "aptazyme ON/OFF ratio": 1.13}
{"mut": "U7G U8C G9U U10A U11A C13A", "aptazyme ON/OFF ratio": 1.3}
{"mut": "U7A U8A G9A U10C U11A C12G C13A", "aptazyme ON/OFF ratio": 1.08}
{"mut": "U7A G9A U10C", "aptazyme ON/OFF ratio": 1.96}
{"mut": "U7A U10C C12G C13U", "aptazyme ON/OFF ratio": 1.28}
{"mut": "U7C G9A U10C U11C C12G", "aptazyme ON/OFF ratio": 1.2}
{"mut": "U7C U8G G9A", "aptazyme ON/OFF ratio": 1.12}
